Molecular target: recombinant human DPP7 (Homo sapiens, UniProt Q9UHL4)
Construct: purchased R&D Systems
Test: DPP7 inhibition, fluorogenic substrate Lys-Pro-AMC
Type: biochemical
Details: recombinant human DPP7
Experimental: The compounds according to the present technology were evaluated in terms of the inhibitory effect on the activity of dipeptidyl peptidases including FAP by using a substrate producing fluorescent substances upon enzymatic decomposition. […] Fluorescence intensity was measured using a microplate reader (Flexstation3, Molecular Devices) under the wavelength condition exciting at 380 nm and reading the emission at 460 nm. […]
reported.endpoint: IC50 (µM)
One number for each entry, in µM.

Some solved cases for reference:
[
  {
    "molecule": "N#Cc1ccc2c(N[C@H]3CCN(CC(=O)N4CCC[C@H]4C#N)C3)cccc2n1 [Example 231]",
    "unit.abbrev": "µM",
    "IC50": 1.51
  },
  {
    "molecule": "N#C[C@@H]1C[C@H](F)CN1C(=O)CN1CC[C@H](Nc2ccc(C(=O)Nc3ccccc3)c3ncccc23)C1 [Example 283]",
    "unit.abbrev": "µM",
    "IC50": 0.0743
  },
  {
    "molecule": "CN(c1ccc(OC(F)(F)F)c2ncccc12)[C@H]1CCN(CC(=O)N2C[C@@H](F)C[C@H]2C#N)C1 [Example 160]",
    "unit.abbrev": "µM",
    "IC50": 0.0778
  },
  {
    "molecule": "N#C[C@@H]1C[C@H](F)CN1C(=O)CN1CC[C@H](Nc2cc(F)c3ncccc3c2)C1 [Example 278]",
    "unit.abbrev": "µM",
    "IC50": 0.615
  }
]

Batch request: IC50 for each of the following molecules.
1. COc1ccc(N[C@H]2CCN(CC(=O)N3C[C@@H](F)C[C@H]3C#N)C2)c2cccnc12 [Example 263]
2. CN(Cc1ccccc1)C(=O)c1ccc(N[C@H]2CCN(CC(=O)N3CCC[C@H]3C#N)C2)c2cccnc12 [Example 288]
3. COc1cc(N[C@H]2CCN(CC(=O)N3CCC[C@H]3C#N)C2)c2cccnc2c1 [Example 237]
4. N#C[C@@H]1C[C@H](F)CN1C(=O)CN1CCC(Nc2ccnc3c(C(F)(F)F)cccc23)CC1 [Example 346]
5. CN(c1ccc2cnccc2c1)C1CCN(CC(=O)N2CCC[C@H]2C#N)CC1 [Example 314]
6. Cc1ccc(N[C@H]2CCN(CC(=O)N3C[C@@H](F)C[C@H]3C#N)C2)c2cccnc12 [Example 262]
7. Cc1ccc2ncccc2c1N[C@H]1CCN(CC(=O)N2CCC[C@H]2C#N)C1 [Example 239]

0.554
0.677
0.746
0.339
2.47
0.452
7.28

====

Target: recombinant human DPP7 (Homo sapiens, UniProt Q9UHL4)
Construct: purchased R&D Systems
Assay: DPP7 inhibition, fluorogenic substrate Lys-Pro-AMC
Assay type: biochemical
Conditions: recombinant human DPP7
reported.endpoint: IC50 (nM)
Give bare numbers, in nM.

Some solved cases for reference:
[
  {
    "structure": "N#C[C@@H]1C[C@H](F)CN1C(=O)CN1CCC(Nc2ccc(F)c3cnccc23)CC1",
    "IC50 / nM": 1640
  },
  {
    "structure": "COc1ccc2nc(C(F)(F)F)cc(OC3CCN(CC(=O)N4C[C@@H](F)C[C@H]4C#N)CC3)c2c1",
    "IC50 / nM": 8740
  }
]

Proceed to the following item.
# returns recorded IC50 (system: recombinant human DPP7 (Homo sapiens, UniProt Q9UHL4)) for N#C[C@@H]1CCCN1C(=O)CN1CCC(Nc2ccc(C(=O)Nc3ncccn3)c3ncccc23)CC1
1160

====

Assignment: determine reported IC50 for the given molecules.
Molecular target: Recombinant human FAP (Homo sapiens)
Construct: purchased R&D systems
Experiment: FAP FRET assay, FGF21-sequence FRET peptide substrate
Type: biochemical
Conditions: FRET peptide with human FGF21 sequence, 6 μM, 37° C.
One number for each entry, in nM.

Some solved cases for reference:
[
  {
    "structure": "CN(Cc1ccccc1)C(=O)c1ccc(N[C@H]2CCN(CC(=O)N3C[C@@H](F)C[C@H]3C#N)C2)c2cccnc12",
    "system.tested": "Recombinant human FAP (Homo sapiens)",
    "unit.abbrev": "nM",
    "measured.result": 3.9
  },
  {
    "structure": "N#C[C@@H]1C[C@H](F)CN1C(=O)CN1CC[C@H](Nc2cnc3ncccc3c2)C1",
    "system.tested": "Recombinant human FAP (Homo sapiens)",
    "unit.abbrev": "nM",
    "measured.result": 16.3
  },
  {
    "structure": "N#C[C@@H]1C[C@H](F)CN1C(=O)CN1CC[C@@H](Nc2c(F)ccc3ncccc23)C1",
    "system.tested": "Recombinant human FAP (Homo sapiens)",
    "unit.abbrev": "nM",
    "measured.result": 5.3
  },
  {
    "structure": "CCN(c1cnc2ccccc2c1)C1CCN(CC(=O)N2CCC[C@H]2C#N)CC1",
    "system.tested": "Recombinant human FAP (Homo sapiens)",
    "unit.abbrev": "nM",
    "measured.result": 22.2
  },
  {
    "structure": "CCN(c1ccc2ncccc2c1)C1CCN(CC(=O)N2CCC[C@H]2C#N)CC1",
    "system.tested": "Recombinant human FAP (Homo sapiens)",
    "unit.abbrev": "nM",
    "measured.result": 9.2
  }
]

Batch request: IC50 for each of the following molecules.
1. N#C[C@@H]1C[C@H](F)CN1C(=O)CN1CCC(Oc2cccc3ncccc23)CC1
2. CC(=O)N1CCc2c(NC3CCN(CC(=O)N4C[C@@H](F)C[C@H]4C#N)CC3)cccc21
3. N#C[C@@H]1CCCN1C(=O)CN1CC[C@@H](Nc2cc(Cl)c3ncccc3c2)C1
4. N#C[C@@H]1C[C@H](F)CN1C(=O)CN1CCC(Nc2ccc(C(=O)Nc3ccccn3)c3ncccc23)CC1
5. Cc1cc(N[C@H]2CCN(CC(=O)N3C[C@@H](F)C[C@H]3C#N)C2)cc2cccnc12
6. N#C[C@@H]1C[C@H](F)CN1C(=O)CN1CCC(Nc2cccc3nc[nH]c23)CC1
7. COc1ccc2nccc(OC3CCN(CC(=O)N4CCC[C@H]4C#N)CC3)c2c1

1: 7; 2: 92.4; 3: 2.1; 4: 1.8; 5: 3; 6: 74.9; 7: 3.9

Batch request: IC50 for each of the following molecules.
1. N#C[C@@H]1CCCN1C(=O)CN1CC[C@H](Nc2ccc(F)c3ncccc23)C1
2. N#C[C@@H]1C[C@H](F)CN1C(=O)CN1CC[C@H](Nc2cnc3nc(Cl)ccc3c2)C1
3. N#C[C@@H]1CCCN1C(=O)CN1CC[C@@H](Nc2cccc3ncc(Cl)cc23)C1
4. N#C[C@@H]1C[C@H](F)CN1C(=O)CN1CC[C@@H](Nc2ccnc3ccc(Cl)cc23)C1

[5.6, 19, 0.9, 15.6]

====

Target: recombinant human DPP7 (Homo sapiens, UniProt Q9UHL4)
Construct: purchased R&D Systems
Experiment: DPP7 inhibition, fluorogenic substrate Lys-Pro-AMC
Type: biochemical
Details: recombinant human DPP7
Assignment: determine reported pIC50 for the given molecules.
Give bare numbers, as −log10 of the molar value.

Some solved cases for reference:
[
  {
    "structure": "N#C[C@@H]1C[C@H](F)CN1C(=O)CN1CCC(Oc2nccc3ccccc23)CC1",
    "pIC50": 5.69
  },
  {
    "structure": "N#C[C@@H]1CCCN1C(=O)CN1CC[C@@H](Nc2cccc3ncc(F)cc23)C1",
    "pIC50": 5.15
  },
  {
    "structure": "N#C[C@@H]1C[C@H](F)CN1C(=O)CN1CCC(Oc2ccnc3c(F)cccc23)CC1",
    "pIC50": 5.18
  },
  {
    "structure": "N#C[C@@H]1CCCN1C(=O)CN1CC[C@H](Nc2ccnc3c(C(F)(F)F)cccc23)C1",
    "pIC50": 6.23
  },
  {
    "structure": "Cc1cnc2ccc(N[C@@H]3CCN(CC(=O)N4C[C@@H](F)C[C@H]4C#N)C3)cc2c1",
    "pIC50": 6.43
  },
  {
    "structure": "N#C[C@@H]1C[C@H](F)CN1C(=O)CN1CCC(Nc2cncc3ccccc23)CC1",
    "pIC50": 6.26
  },
  {
    "structure": "N#C[C@@H]1C[C@H](F)CN1C(=O)CN1CCC(Nc2ccc([N+](=O)[O-])c3cnccc23)CC1",
    "pIC50": 5.69
  }
]

Proceed to the following item.
Using the record for N#C[C@@H]1CCCN1C(=O)CN1CC[C@@H](Nc2cc(F)cc3ncccc23)C1 , report its pIC50.
5.39

====

Biological target: Recombinant human FAP (Homo sapiens, UniProt Q12884)
Construct: purchased R&D systems
Sequence (Q12884 whole entry): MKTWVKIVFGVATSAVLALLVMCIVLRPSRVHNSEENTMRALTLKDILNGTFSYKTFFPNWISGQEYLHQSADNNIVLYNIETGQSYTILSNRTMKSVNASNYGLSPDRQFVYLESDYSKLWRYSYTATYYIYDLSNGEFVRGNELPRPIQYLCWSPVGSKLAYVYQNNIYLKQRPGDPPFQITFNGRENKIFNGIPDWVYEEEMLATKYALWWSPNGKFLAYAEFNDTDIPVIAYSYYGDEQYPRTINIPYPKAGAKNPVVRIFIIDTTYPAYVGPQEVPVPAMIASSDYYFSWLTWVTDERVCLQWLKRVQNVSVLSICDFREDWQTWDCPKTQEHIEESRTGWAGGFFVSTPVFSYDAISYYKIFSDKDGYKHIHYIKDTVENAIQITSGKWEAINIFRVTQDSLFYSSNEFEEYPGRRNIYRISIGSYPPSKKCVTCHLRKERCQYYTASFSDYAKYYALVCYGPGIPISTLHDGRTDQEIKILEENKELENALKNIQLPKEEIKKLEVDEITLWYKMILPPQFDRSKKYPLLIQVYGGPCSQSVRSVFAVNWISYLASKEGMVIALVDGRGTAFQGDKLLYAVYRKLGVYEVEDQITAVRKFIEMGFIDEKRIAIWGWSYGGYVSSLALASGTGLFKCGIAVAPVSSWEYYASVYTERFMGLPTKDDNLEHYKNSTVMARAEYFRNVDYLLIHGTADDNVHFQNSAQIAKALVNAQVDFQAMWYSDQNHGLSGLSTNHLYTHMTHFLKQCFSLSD
Experiment: FAP FRET assay, FGF21-sequence FRET peptide substrate
Type: biochemical
Conditions: FRET peptide with human FGF21 sequence, 6 μM, 37° C.
reported.endpoint: pIC50
Give bare numbers, as −log10 of the molar value.

Some solved cases for reference:
[
  {
    "structure": "N#C[C@@H]1C[C@H](F)CN1C(=O)CN1CC[C@@H](Nc2ccc(F)c3ncccc23)C1",
    "measured.result": 8.46
  },
  {
    "structure": "N#C[C@@H]1C[C@H](F)CN1C(=O)CN1CCC(Nc2ccc(C(=O)Nc3ccncc3)c3ncccc23)CC1",
    "measured.result": 8.38
  },
  {
    "structure": "N#C[C@@H]1C[C@H](F)CN1C(=O)CN1CC[C@H](Nc2ccc(OCc3ccccc3)c3ncccc23)C1",
    "measured.result": 9.15
  }
]

Proceed to the following item.
Using the record for N#Cc1ccc2c(OC3CCN(CC(=O)N4CCC[C@H]4C#N)CC3)cccc2n1 , report its pIC50.
7.61
